molecular target: Epidermal growth factor receptor (Homo sapiens, UniProt P00533, L858R/T790M); experiment: Inhibition of EGFR T790M/L858R double mutant (unknown origin) using peptide substrate after 60 mins by HTRF assay
Sequence (P00533 25-1210 T790M/L858R limits assumed): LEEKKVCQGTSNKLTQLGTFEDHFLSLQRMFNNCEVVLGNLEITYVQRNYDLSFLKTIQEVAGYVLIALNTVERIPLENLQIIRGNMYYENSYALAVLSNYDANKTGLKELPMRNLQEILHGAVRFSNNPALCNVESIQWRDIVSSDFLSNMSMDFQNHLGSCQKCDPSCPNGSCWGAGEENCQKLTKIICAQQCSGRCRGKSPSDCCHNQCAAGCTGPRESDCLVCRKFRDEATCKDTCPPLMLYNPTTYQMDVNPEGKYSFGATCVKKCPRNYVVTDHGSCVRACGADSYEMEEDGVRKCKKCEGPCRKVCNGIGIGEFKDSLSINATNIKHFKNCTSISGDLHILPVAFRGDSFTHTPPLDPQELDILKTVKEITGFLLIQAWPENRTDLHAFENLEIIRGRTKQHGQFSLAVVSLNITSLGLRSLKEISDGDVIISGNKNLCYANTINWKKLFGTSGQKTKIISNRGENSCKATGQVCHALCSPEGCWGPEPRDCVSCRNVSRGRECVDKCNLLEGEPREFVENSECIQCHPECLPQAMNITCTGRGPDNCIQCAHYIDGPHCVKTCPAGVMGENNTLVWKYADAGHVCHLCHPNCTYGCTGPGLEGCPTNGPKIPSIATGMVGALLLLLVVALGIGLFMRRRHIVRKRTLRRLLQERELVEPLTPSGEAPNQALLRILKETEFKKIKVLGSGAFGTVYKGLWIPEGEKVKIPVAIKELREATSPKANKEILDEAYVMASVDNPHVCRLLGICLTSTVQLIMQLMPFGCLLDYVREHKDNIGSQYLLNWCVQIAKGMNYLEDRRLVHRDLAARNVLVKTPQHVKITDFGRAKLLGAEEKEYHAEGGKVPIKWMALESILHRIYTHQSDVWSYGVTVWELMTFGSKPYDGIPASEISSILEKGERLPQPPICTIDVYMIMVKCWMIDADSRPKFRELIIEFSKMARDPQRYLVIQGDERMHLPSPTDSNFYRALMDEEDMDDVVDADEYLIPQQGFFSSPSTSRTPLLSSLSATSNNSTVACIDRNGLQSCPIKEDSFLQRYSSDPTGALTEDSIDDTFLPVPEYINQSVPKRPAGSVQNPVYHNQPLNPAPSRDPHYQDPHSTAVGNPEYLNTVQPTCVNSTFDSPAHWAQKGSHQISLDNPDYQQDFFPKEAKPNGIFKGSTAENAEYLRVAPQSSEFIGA
EXPERIMENTAL ENDPOINT: IC50 (nM)

a. O=C(N/N=C/c1ccc(F)cc1Cl)N1CCc2ncnc(Nc3cccc(Br)c3)c2C1
b. Cc1ccc(/C=N/NC(=O)N2CCc3ncnc(Nc4cccc(C(F)(F)F)c4)c3C2)cc1
In: Given a and b , report the one with the higher recorded IC50. Identify your pick by its label.
Out: b

----------
target: Epidermal growth factor receptor (Homo sapiens)
EXPERIMENTAL ENDPOINT: pIC50
// pIC50 here means minus log10 of the molar concentration (mol/L)

In: Find the measured pIC50: item O=C(N/N=C/c1ccc(F)cc1Cl)N1CCc2ncnc(Nc3cccc(Br)c3)c2C1 , target or system Epidermal growth factor receptor (Homo sapiens).
Out: 7.74
